- Tested Target: Dipeptidase 1 (Sus scrofa)
- Sequence (whole entry): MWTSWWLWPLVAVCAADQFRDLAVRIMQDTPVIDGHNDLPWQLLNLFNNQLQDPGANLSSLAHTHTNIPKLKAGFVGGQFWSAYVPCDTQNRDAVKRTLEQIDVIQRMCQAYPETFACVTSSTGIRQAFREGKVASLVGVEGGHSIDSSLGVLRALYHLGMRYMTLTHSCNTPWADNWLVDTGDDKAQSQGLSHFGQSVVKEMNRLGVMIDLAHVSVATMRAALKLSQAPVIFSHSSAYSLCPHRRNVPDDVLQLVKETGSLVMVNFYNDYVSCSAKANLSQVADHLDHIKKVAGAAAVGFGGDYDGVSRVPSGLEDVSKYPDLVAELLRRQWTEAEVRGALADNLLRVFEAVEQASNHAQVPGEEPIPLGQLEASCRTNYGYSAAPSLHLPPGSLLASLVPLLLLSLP
- Assay Method Text: Relative hydrolysis by hog Dehydropeptidase
- Format: functional
Where Relative hydrolysis equals or exceeds 6, the correct label is Y; where it does not, the label is N.

Given CC(C)C(=O)OCOC(=O)NC[C@H]1OCC[C@H]1SC1=C(C(=O)[O-])N2C(=O)[C@H]([C@@H](C)O)C2[C@H]1C.[Na+] (stereo partly specified) , state whether its Relative hydrolysis is at least 6.
N

Does the reported Relative hydrolysis for `C[C@@H](O)[C@H]1C(=O)N2C(C(=O)O)=C(S[C@@H]3CCO[C@@H]3CN)[C@H](C)[C@H]12` fall at or above the 6 mark?
Y

Quick check, Relative hydrolysis >= 6? CCOC(=O)OCOC(=O)C1=C(S[C@@H]2CCO[C@@H]2CNC(=O)OCOC(=O)C(C)C)[C@H](C)C2[C@@H]([C@@H](C)O)C(=O)N12 (stereo partly specified)
Y

Determine whether measured Relative hydrolysis meets or exceeds 6 for CCOC(=O)OCOC(=O)C1=C(S[C@@H]2CCO[C@@H]2CN)[C@H](C)C2[C@@H]([C@@H](C)O)C(=O)N12.Cl (stereo partly specified)
Y

====

- Tested on: Enterococcus faecalis
- Assay Method Text: In vitro antibacterial activity against E. faecalis(GC 842) following pre-incubation in mouse serum
- Type: functional
Provide the recorded MIC for the entries that follow.
Write down the numeric answer in µg/mL and omit the unit.

Input CCOC(=O)OCOC(=O)C1=C(S[C@@H]2CCO[C@@H]2CNC(=O)OCOC(=O)C(C)C)[C@H](C)C2[C@@H]([C@@H](C)O)C(=O)N12 (stereo partly drawn) . Output MIC: 2

Memo: CCOC(=O)OCOC(=O)C1=C(S[C@@H]2CCO[C@@H]2CNC(=O)OC(C)OC(=O)C(C)(C)C)[C@H](C)C2[C@@H]([C@@H](C)O)C(=O)N12 (stereo partly drawn) , reported MIC: 2

Lab note: CC(C)C(=O)OCOC(=O)NC[C@H]1OCC[C@H]1SC1=C(C(=O)[O-])N2C(=O)[C@H]([C@@H](C)O)C2[C@H]1C.[Na+] (stereo partly drawn) gave MIC of 1

Lab book: MIC of CCOC(=O)OCOC(=O)C1=C(S[C@@H]2CCO[C@@H]2CN)[C@H](C)C2[C@@H]([C@@H](C)O)C(=O)N12.Cl (stereo partly drawn) noted as 2

Record summary for CCOC(=O)OCOC(=O)C1=C(S[C@@H]2CCO[C@@H]2CNC(=O)OC(C)OC(C)=O)[C@H](C)C2[C@@H]([C@@H](C)O)C(=O)N12 (stereo partly drawn) : reported MIC = 2

// sample CC(=O)OC(C)OC(=O)NC[C@H]1OCC[C@H]1SC1=C(C(=O)[O-])N2C(=O)[C@H]([C@@H](C)O)C2[C@H]1C.[Na+] (stereo partly drawn) , its MIC was 1

Value of measured MIC for the entry CCCC(=O)OCOC(=O)NC[C@H]1OCC[C@H]1SC1=C(C(=O)[O-])N2C(=O)[C@H]([C@@H](C)O)C2[C@H]1C.[Na+] (stereo partly drawn) : 1

response.value for CCOC(=O)OCOC(=O)C1=C(S[C@@H]2CCO[C@@H]2CNC(=O)OCOC(=O)C(C)(C)C)[C@H](C)C2[C@@H]([C@@H](C)O)C(=O)N12 (stereo partly drawn) (field: MIC) = 4

====

What MIC was measured for each of the following?
- Test system: Pseudomonas aeruginosa
- Assay Method Text: In vitro antibacterial activity against Pseudomonas aeruginosa (ATCC 27853) without pre-incubation in mouse serum
- Assay type: functional

MIC reported for this compound CC(C)C(=O)OCOC(=O)NC[C@H]1OCC[C@H]1SC1=C(C(=O)[O-])N2C(=O)[C@H]([C@@H](C)O)C2[C@H]1C.[Na+] (stereo partly drawn) : 64 µg/mL

response.value for CCOC(=O)OCOC(=O)C1=C(S[C@@H]2CCO[C@@H]2CNC(=O)OC(C)OC(=O)C(C)(C)C)[C@H](C)C2[C@@H]([C@@H](C)O)C(=O)N12 (stereo partly drawn) (field: MIC) = > 128 µg/mL

The value of MIC measured for the compound `C[C@@H](O)[C@H]1C(=O)N2C(C(=O)O)=C(S[C@@H]3CCO[C@@H]3CN)[C@H](C)[C@H]12` turned out to be 8 µg/mL

====

Could you please report measured MIC for the items listed next?
- System: Pseudomonas aeruginosa
- Assay Method Text: In vitro antibacterial activity against P. aeruginosa(GC 1544 oprd) following pre-incubation in mouse serum
- Type: functional
Answer format: numeric, µg/mL implied, no suffix.

The measured MIC that CCOC(=O)OCOC(=O)C1=C(S[C@@H]2CCO[C@@H]2CNC(=O)OCOC(=O)C(C)C)[C@H](C)C2[C@@H]([C@@H](C)O)C(=O)N12 (stereo not given in full) showed for Pseudomonas aeruginosa is 32

CCOC(=O)OCOC(=O)C1=C(S[C@@H]2CCO[C@@H]2CN)[C@H](C)C2[C@@H]([C@@H](C)O)C(=O)N12.Cl (stereo not given in full) on Pseudomonas aeruginosa gives MIC = 32

The compound CCCC(=O)OCOC(=O)NC[C@H]1OCC[C@H]1SC1=C(C(=O)[O-])N2C(=O)[C@H]([C@@H](C)O)C2[C@H]1C.[Na+] (stereo not given in full) on Pseudomonas aeruginosa: MIC was 16

Entry CCOC(=O)OCOC(=O)C1=C(S[C@@H]2CCO[C@@H]2CNC(=O)OC(C)OC(C)=O)[C@H](C)C2[C@@H]([C@@H](C)O)C(=O)N12 (stereo not given in full) ; assay system Pseudomonas aeruginosa; MIC recorded at 32

MIC for Pseudomonas aeruginosa with input CC(=O)OC(C)OC(=O)NC[C@H]1OCC[C@H]1SC1=C(C(=O)[O-])N2C(=O)[C@H]([C@@H](C)O)C2[C@H]1C.[Na+] (stereo not given in full) equals 32

====

- Test system: Pseudomonas aeruginosa
- Assay Method Text: In vitro antibacterial activity against Pseudomonas aeruginosa (ATCC 27853) without pre-incubation in mouse serum
- Format: functional
Attribute Measured: MIC (µg/mL)
API: value field is a number in µg/mL; no unit string.

# compound CCCC(=O)OCOC(=O)NC[C@H]1OCC[C@H]1SC1=C(C(=O)[O-])N2C(=O)[C@H]([C@@H](C)O)C2[C@H]1C.[Na+] (stereo partly specified) ; its MIC = 64

Lab note: measured MIC of CC(=O)OC(C)OC(=O)NC[C@H]1OCC[C@H]1SC1=C(C(=O)[O-])N2C(=O)[C@H]([C@@H](C)O)C2[C@H]1C.[Na+] (stereo partly specified) was 64

Notebook: CCOC(=O)OCOC(=O)C1=C(S[C@@H]2CCO[C@@H]2CN)[C@H](C)C2[C@@H]([C@@H](C)O)C(=O)N12.Cl (stereo partly specified) , MIC read as 128

====

Would you kindly list MIC for each of these compounds?
- Test system: Enterobacter cloacae
- Assay Method Text: In vitro antibacterial activity against E. cloacae(GC 2209) following preincubation in mouse serum
- Type: functional
Express the result in µg/mL but write the number alone.

Entry CC(C)C(=O)OCOC(=O)NC[C@H]1OCC[C@H]1SC1=C(C(=O)[O-])N2C(=O)[C@H]([C@@H](C)O)C2[C@H]1C.[Na+] (stereo not given in full) ; MIC = 0.06

# MIC of CCCC(=O)OCOC(=O)NC[C@H]1OCC[C@H]1SC1=C(C(=O)[O-])N2C(=O)[C@H]([C@@H](C)O)C2[C@H]1C.[Na+] (stereo not given in full) = 0.06

GET /value?item= CCOC(=O)OCOC(=O)C1=C(S[C@@H]2CCO[C@@H]2CNC(=O)OCOC(=O)C(C)(C)C)[C@H](C)C2[C@@H]([C@@H](C)O)C(=O)N12 (stereo not given in full) &field=MIC returns 0.25

Short answer for CCOC(=O)OCOC(=O)C1=C(S[C@@H]2CCO[C@@H]2CN)[C@H](C)C2[C@@H]([C@@H](C)O)C(=O)N12.Cl (stereo not given in full) : MIC was 0.12

// data source = ChEMBL document CHEMBL1130478
